molecular target: Phosphatidylinositol 4,5-bisphosphate 3-kinase catalytic subunit alpha isoform (Homo sapiens); experiment: Inhibition of PI3Kalpha (unknown origin) by mobility shift assay
Sequence (P42336 whole entry, canonical isoform): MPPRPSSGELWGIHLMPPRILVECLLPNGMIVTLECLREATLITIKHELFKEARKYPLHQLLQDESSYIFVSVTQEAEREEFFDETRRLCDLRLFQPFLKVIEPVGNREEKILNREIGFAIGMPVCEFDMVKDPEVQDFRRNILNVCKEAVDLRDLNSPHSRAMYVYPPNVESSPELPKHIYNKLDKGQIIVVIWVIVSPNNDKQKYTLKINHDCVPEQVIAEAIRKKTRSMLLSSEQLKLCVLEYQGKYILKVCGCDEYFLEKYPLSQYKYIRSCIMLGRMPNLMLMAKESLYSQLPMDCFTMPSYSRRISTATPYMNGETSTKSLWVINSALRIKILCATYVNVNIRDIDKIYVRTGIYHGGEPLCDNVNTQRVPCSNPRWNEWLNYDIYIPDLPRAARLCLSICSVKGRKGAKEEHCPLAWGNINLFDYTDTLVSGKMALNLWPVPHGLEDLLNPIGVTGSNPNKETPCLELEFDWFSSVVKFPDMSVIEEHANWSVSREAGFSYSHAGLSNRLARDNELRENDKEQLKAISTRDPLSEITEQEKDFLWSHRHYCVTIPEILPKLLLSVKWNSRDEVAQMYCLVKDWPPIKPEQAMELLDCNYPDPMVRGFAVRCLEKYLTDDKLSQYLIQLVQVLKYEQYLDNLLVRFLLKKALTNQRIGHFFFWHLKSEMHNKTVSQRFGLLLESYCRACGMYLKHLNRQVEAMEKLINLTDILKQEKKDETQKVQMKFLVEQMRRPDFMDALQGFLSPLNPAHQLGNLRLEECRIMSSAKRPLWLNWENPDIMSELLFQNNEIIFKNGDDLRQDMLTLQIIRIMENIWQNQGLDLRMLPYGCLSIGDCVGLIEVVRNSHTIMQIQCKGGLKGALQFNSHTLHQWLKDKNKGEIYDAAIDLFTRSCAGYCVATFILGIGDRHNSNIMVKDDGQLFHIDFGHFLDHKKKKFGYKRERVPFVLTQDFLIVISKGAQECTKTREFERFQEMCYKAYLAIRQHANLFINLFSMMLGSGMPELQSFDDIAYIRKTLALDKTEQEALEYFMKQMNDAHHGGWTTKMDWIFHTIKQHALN
Task for the reader: assign each of the following compounds its reported IC50.

Query: Request the reported IC50 associated with CC(C)(O)c1ccc(-c2cnc3c(n2)N(CC2CCOCC2)CC(=O)N3)cn1
Response: > 30 µM

Query: Request the reported IC50 associated with CC(C)(O)c1ccc(-c2cnc3[nH]c(=O)n(CC4CCOCC4)c3n2)cn1
Response: > 30 µM

###

assay: Volume of distribution at steady state in rat at 2 mg/kg, iv; assay type: ADME, organism-based; parameters: dose 2 mg/kg, route intravenous; details: in vivo, read-out: Vdss
Experimental readout: Vd
Please answer using a numeric value trailed by its unit.

Query: Request the reported Vd associated with CC(C)(O)c1ccc(-c2cnc3c(n2)N(CC2CCOCC2)CC(=O)N3)cn1
Response: 1.3 L/kg

###

assay: Plasma concentration in CB17 SCID mouse xenografted with human PC3 cells at 30 mg/kg, po qd at 8 hrs; assay type: ADME, organism-based, PC-3; design: dose 30 mg/kg, route oral
Experimental readout: concentration at 8 h (nM)
Provide only the numeric value, understood in nM.

Query: Request the reported concentration at 8 h associated with CC(C)(O)c1ccc(-c2cnc3c(n2)N(CC2CCOCC2)CC(=O)N3)cn1
Response: 2420

###

assay: Drug uptake in tumor of CB17 SCID mouse xenografted with human PC3 cells at 30 mg/kg, po qd at 2 hrs; type: ADME, organism-based, Neoplasm, PC-3; set-up: dose 30 mg/kg, route oral; settings: read-out: Drug uptake
Experimental readout: concentration at 2 h
Please answer using a numeric value trailed by its unit.

Query: Request the reported concentration at 2 h associated with CC(C)(O)c1ccc(-c2cnc3c(n2)N(CC2CCOCC2)CC(=O)N3)cn1
Response: 4.1 µM

###

assay: Plasma concentration in CB17 SCID mouse xenografted with human PC3 cells at 30 mg/kg, po qd at 2 hrs; type: ADME, organism-based, PC-3; design: dose 30 mg/kg, route oral
Experimental readout: concentration at 2 h (µM)
Provide only the numeric value, understood in µM.

Query: Request the reported concentration at 2 h associated with CC(C)(O)c1ccc(-c2cnc3c(n2)N(CC2CCOCC2)CC(=O)N3)cn1
Response: 6.83

###

assay: Cmax in rat at 5 mg/kg, po; type: ADME, organism-based; set-up: dose 5 mg/kg, route oral; details: in vivo
Experimental readout: Cmax

Query: Request the reported Cmax associated with CC(C)(O)c1ccc(-c2cnc3c(n2)N(CC2CCOCC2)CC(=O)N3)cn1
Response: 3.3 µM

###

experiment: AUC (0 to infinity) in rat at 2 mg/kg, iv; type: ADME, organism-based; design: time infinity, dose 2 mg/kg, route intravenous; conditions: plasma
Experimental readout: AUC(0-inf) (µM·h)
Provide only the numeric value, understood in µM·h.

Query: Request the reported AUC(0-inf) associated with CC(C)(O)c1ccc(-c2cnc3c(n2)N(CC2CCOCC2)CC(=O)N3)cn1
Response: 10.8

###

experiment: Oral bioavailability in rat at 5 mg/kg; type: ADME, organism-based; conditions: in vivo
Experimental readout: bioavailability (%)
Provide only the numeric value, understood in %.

Query: Request the reported bioavailability associated with O=c1[nH]c2ncc(-c3ccc(-c4nc[nH]n4)cc3)nc2n1CCC1CCOCC1
Response: 0.85

Query: Request the reported bioavailability associated with CC(C)(O)c1ccc(-c2cnc3c(n2)N(CC2CCOCC2)CC(=O)N3)cn1
Response: 100

Query: Request the reported bioavailability associated with O=C1CN(CCC2CCOCC2)c2nc(-c3ccc(-c4nc[nH]n4)cc3)cnc2N1
Response: 0
